Test: qHTS RealTime-Glo MT Cell Viability Assay in HEK293 cells - 8 hour (AID 1224887); note: nearly all actives have a fitted effect of over 50% in size
Conditions: RealTime-Glo luminescence; series mostly up to 76.8 µM
Records with an inconclusive call do not appear. Active and inactive are the calls of the source. Calls come from the whole dose curve; as a rule, active = well fitted cell-killing curve with a large enough effect in the repeat runs; inconclusive = weak or mixed curves, or effect the other way; inactive = flat fitted curve, though single readings scatter.
Please answer using one outcome listed in T for active, F for inactive

Dear colleague, could you share the recorded outcome for CC(C)(C)c1n[nH]c(=O)n(N)c1=O when you have a moment? F

What classification did CCc1cccc(CC)c1NC(=O)C(=O)O end up with in this test? F

Tell me the assay call for CC(C)(C)CC(C)(C)c1ccccc1O please. T

Could you kindly confirm the outcome this assay logged for CN(C)CCOC(c1ccccc1)c1ccccc1 (tested in a mixture with another compound) ? F

For the next question, use this compound.
Query: recorded result category for CCc1ccc(O)c(C(C)(C)C)c1 in this test F
